Reported binding signal by item:
- target_desc: POU2 (OCT2 POU domain);BOB1 (OBF1, OCA-B) (human;human, UniProt P09086;Q16633 175-386;1-256, |)
- Sequence 1: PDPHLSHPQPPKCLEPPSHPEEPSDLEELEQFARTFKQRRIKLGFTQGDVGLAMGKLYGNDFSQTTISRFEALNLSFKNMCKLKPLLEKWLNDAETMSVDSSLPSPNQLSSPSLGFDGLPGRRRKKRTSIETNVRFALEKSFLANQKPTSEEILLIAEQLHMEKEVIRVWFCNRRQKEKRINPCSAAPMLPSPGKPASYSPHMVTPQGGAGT
- Sequence 2: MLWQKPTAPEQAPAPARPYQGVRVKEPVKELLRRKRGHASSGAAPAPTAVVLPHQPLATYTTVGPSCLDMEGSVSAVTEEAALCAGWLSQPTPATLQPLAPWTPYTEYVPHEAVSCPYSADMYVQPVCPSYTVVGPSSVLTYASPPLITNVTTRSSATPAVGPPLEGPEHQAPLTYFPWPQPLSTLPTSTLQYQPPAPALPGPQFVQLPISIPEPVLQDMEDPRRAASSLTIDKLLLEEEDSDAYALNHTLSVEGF
- test_description: EMSA-SELEX-seq; with BOB1 (ternary complex band); 20 mM Tris-HCl pH 7.6, 140 mM NaCl, 10% glycerol, 0.5 mM EDTA, 0.05% Triton X-100, 0.1 mg/mL BSA, 0.1 mg/mL poly(dI-dC), 5 mM DTT, room temperature, 20 min; high values mean tight binding
- protocol_conditions: protein: recombinant;recombinant; copies: 1;1; dsDNA, one strand shown

INSERT INTO assay_data (sequence_content, data_value) VALUES
  ('AGAGGAAG', '0.0413 % of ANNNNAAN 8-mers'),
  ('AAATAAAT', '0.22 % of ANNNNAAN 8-mers'),
  ('ATTCCAAG', '0.0446 % of ANNNNAAN 8-mers'),
  ('AGCTCAAC', '0.0231 % of ANNNNAAN 8-mers'),
  ('ATGTAAAA', '0.618 % of ANNNNAAN 8-mers');

Answer with the recorded binding signal for the sequence listed here: ACCTGAAC 0.0215 % of ANNNNAAN 8-mers

###

- target_desc: POU1 (OCT1 POU domain);BOB1 (OBF1, OCA-B) (human;human, UniProt P14859;Q16633 260-458;1-256, |)
- Sequence (P14859 260-458, one chain of several): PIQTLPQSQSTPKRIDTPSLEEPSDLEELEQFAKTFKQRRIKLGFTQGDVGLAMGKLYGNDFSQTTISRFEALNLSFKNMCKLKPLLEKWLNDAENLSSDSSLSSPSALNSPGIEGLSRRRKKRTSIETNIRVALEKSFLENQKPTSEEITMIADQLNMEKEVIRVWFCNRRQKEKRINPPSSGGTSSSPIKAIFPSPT
- test_description: EMSA-SELEX-seq; with BOB1 (ternary complex band); 20 mM Tris-HCl pH 7.6, 140 mM NaCl, 10% glycerol, 0.5 mM EDTA, 0.05% Triton X-100, 0.1 mg/mL BSA, 0.1 mg/mL poly(dI-dC), 5 mM DTT, room temperature, 20 min; high values mean tight binding
- protocol_conditions: protein: recombinant;recombinant; copies: 1;1; dsDNA, one strand shown
Here, each record is paired with measured binding signal data.

INSERT INTO assay_data (sequence_content, endpoint_name, data_value) VALUES
  ('AATCTAAA', 'binding signal', '0.0726 % of ANNNNAAN 8-mers'),
  ('AGTCTAAG', 'binding signal', '0.0343 % of ANNNNAAN 8-mers'),
  ('AGAACAAA', 'binding signal', '0.032 % of ANNNNAAN 8-mers'),
  ('ATTCCAAA', 'binding signal', '0.041 % of ANNNNAAN 8-mers');

In one line, give reported binding signal of the entry ATGGCAAT . 0.0484 % of ANNNNAAN 8-mers

###

- target_desc: POU1 (OCT1 POU domain);BOB1 (OBF1, OCA-B) (human;human, UniProt P14859;Q16633 260-458;1-256, |)
- test_description: EMSA-SELEX-seq; with BOB1 (ternary complex band); 20 mM Tris-HCl pH 7.6, 140 mM NaCl, 10% glycerol, 0.5 mM EDTA, 0.05% Triton X-100, 0.1 mg/mL BSA, 0.1 mg/mL poly(dI-dC), 5 mM DTT, room temperature, 20 min; high values mean tight binding
- protocol_conditions: protein: recombinant;recombinant; copies: 1;1; dsDNA, one strand shown
Below, each entry is listed with its recorded binding signal.

Sample records with binding signal:
INSERT INTO assay_data (sequence_content, data_value) VALUES
  ('AATCGAAT', '0.078 % of ANNNNAAN 8-mers'),
  ('ATTCCAAG', '0.032 % of ANNNNAAN 8-mers'),
  ('AAGCCAAG', '0.0168 % of ANNNNAAN 8-mers'),
  ('ACTATAAA', '0.041 % of ANNNNAAN 8-mers'),
  ('AGGCCAAC', '0.0113 % of ANNNNAAN 8-mers');

Give reported binding signal value for ATATTAAT 0.142 % of ANNNNAAN 8-mers

Please indicate binding signal recorded for AACGAAAG 0.0328 % of ANNNNAAN 8-mers

For AAGGGAAT , write its binding signal. 0.0765 % of ANNNNAAN 8-mers

Return value of binding signal for input AACCGAAG , no commentary. 0.0168 % of ANNNNAAN 8-mers

Entry ATGATAAT needs its binding signal filled in; supply it. 0.138 % of ANNNNAAN 8-mers

###

Some sequences, each annotated with its measured binding signal.
- target_desc: POU2 (OCT2 POU domain) (human, UniProt P09086 175-386)
- Sequence: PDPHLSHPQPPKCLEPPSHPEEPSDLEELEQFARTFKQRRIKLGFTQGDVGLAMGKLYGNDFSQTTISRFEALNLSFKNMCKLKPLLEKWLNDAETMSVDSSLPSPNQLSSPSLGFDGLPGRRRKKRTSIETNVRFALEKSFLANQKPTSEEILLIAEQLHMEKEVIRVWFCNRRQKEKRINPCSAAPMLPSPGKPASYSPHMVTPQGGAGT
- test_description: EMSA-SELEX-seq; no BOB1; 20 mM Tris-HCl pH 7.6, 140 mM NaCl, 10% glycerol, 0.5 mM EDTA, 0.05% Triton X-100, 0.1 mg/mL BSA, 0.1 mg/mL poly(dI-dC), 5 mM DTT, room temperature, 20 min; high values mean tight binding
- protocol_conditions: protein: recombinant; dsDNA, one strand shown

Known binding signal results, listed for orientation:
INSERT INTO assay_data (sequence_content, target_desc, endpoint_name, data_value) VALUES
  ('AAGACAAT', 'POU2 (OCT2 POU domain) (human, UniProt P09086 175-386)', 'binding signal', '0.0478 % of ANNNNAAN 8-mers'),
  ('ATCGGAAT', 'POU2 (OCT2 POU domain) (human, UniProt P09086 175-386)', 'binding signal', '0.0869 % of ANNNNAAN 8-mers'),
  ('ACCTGAAG', 'POU2 (OCT2 POU domain) (human, UniProt P09086 175-386)', 'binding signal', '0.0161 % of ANNNNAAN 8-mers'),
  ('ATGTAAAT', 'POU2 (OCT2 POU domain) (human, UniProt P09086 175-386)', 'binding signal', '2.89 % of ANNNNAAN 8-mers'),
  ('AATAAAAT', 'POU2 (OCT2 POU domain) (human, UniProt P09086 175-386)', 'binding signal', '0.214 % of ANNNNAAN 8-mers'),
  ('AACAGAAT', 'POU2 (OCT2 POU domain) (human, UniProt P09086 175-386)', 'binding signal', '0.0679 % of ANNNNAAN 8-mers');

Give a short answer stating reported binding signal for AGACAAAG . 0.0374 % of ANNNNAAN 8-mers

For the sequence AAATAAAA , report binding signal. 0.177 % of ANNNNAAN 8-mers

Supply binding signal value. Item: AGTGAAAA 0.0685 % of ANNNNAAN 8-mers

Tell us which binding signal value is on record for ACGTCAAC 0.0173 % of ANNNNAAN 8-mers

Identify binding signal associated with the sequence ATTAGAAC 0.0564 % of ANNNNAAN 8-mers

Quick one: give measured binding signal for ACTAAAAA 0.0409 % of ANNNNAAN 8-mers

Specify binding signal for ATAGTAAC and stop. 0.0414 % of ANNNNAAN 8-mers

Supply binding signal value. Item: AGCATAAC 0.099 % of ANNNNAAN 8-mers

Please indicate binding signal recorded for AGAAGAAT 0.0737 % of ANNNNAAN 8-mers

Query binding signal for AGCAGAAT 0.0621 % of ANNNNAAN 8-mers

Give reported binding signal value for ATCAAAAC 0.0443 % of ANNNNAAN 8-mers

Look up binding signal of ATTATAAA and report it. 0.204 % of ANNNNAAN 8-mers

Read off the recorded binding signal for ACGTAAAC 0.0299 % of ANNNNAAN 8-mers

Return binding signal (reported value) for this sequence: AGCGAAAC 0.023 % of ANNNNAAN 8-mers

Look up binding signal of AGTAGAAC and report it. 0.0242 % of ANNNNAAN 8-mers

Give the measured binding signal for ACAGGAAA 0.0506 % of ANNNNAAN 8-mers

Look up and report measured binding signal for this entry: ACTGGAAG 0.027 % of ANNNNAAN 8-mers

Tell me binding signal reported for AAGCCAAC 0.0161 % of ANNNNAAN 8-mers

Read off the recorded binding signal for AAGGTAAG 0.0478 % of ANNNNAAN 8-mers

Give binding signal for ACGTAAAA 0.0529 % of ANNNNAAN 8-mers

Fill in reported binding signal for this entry: AAGGTAAA 0.109 % of ANNNNAAN 8-mers

Specify measured binding signal for AGCACAAA . 0.0242 % of ANNNNAAN 8-mers

Annotate the sequence ACATTAAT with its measured binding signal. 0.215 % of ANNNNAAN 8-mers
